# testName: WST-1 cytotoxicity assay, HFFF cells
# Format: cell-based, human
# recordedConditions: human, HFFF cells (human fetal foreskin fibroblasts), confluent

smilesCode	CC50 at 96 h [µM]
CC[C@H](CO)Nc1nc(NCc2ccccc2O)c2ncn(C(C)C)c2n1	17

====

# testName: WST-1 cytotoxicity assay, HFFF cells
# Assay type: cell-based, human
# recordedConditions: human, HFFF cells (human fetal foreskin fibroblasts), confluent
# CC50 at 48 h per record follows

molecule	CC50 at 48 h, µM
CC[C@H](CO)Nc1nc(NCc2ccccc2)c2ncn(C(C)C)c2n1 [Roscovitine, reference compound]	84
CC[C@H](CO)Nc1nc(NCc2ccccc2O)c2ncn(C(C)C)c2n1 [Olomoucine II]	73

====

# CC50 at 72 h per record follows
# testName: WST-1 cytotoxicity assay, HFFF cells
# Assay type: cell-based, human
# recordedConditions: human, HFFF cells (human fetal foreskin fibroblasts), confluent

compound	measurementUnit	CC50 at 72 h
CC[C@H](CO)Nc1nc(NCc2ccccc2O)c2ncn(C(C)C)c2n1	µM	16
CC[C@H](CO)Nc1nc(NCc2ccccc2)c2ncn(C(C)C)c2n1 [Roscovitine, reference compound]	µM	21
